Recorded measurements of growth, one per entry
test system: SNB-19 CNS; assay: NCI-60 one-dose screen, 48 h (100 = growth as untreated, 0 = no growth, -100 = all killed); conditions: 10 µM
About 83,000 compounds went through this panel and 20% of them were active in at least one assay; those are over-represented in the sample as a whole. Activity calls are given as the source filed them. How the source made its calls: active means growth percent below 10; inactive means the rest.

Answered examples (3):
Cc1nc2sccn2c1-c1csc(Nc2cccc(Cl)c2C)n1    77.1% (inactive)
FC(F)(F)c1ccc(-c2nc(-c3nc4cc(Cl)c(Cl)cc4[nH]3)c3ccccn23)cc1    84.4% (inactive)
COc1cc(-c2n/c(=C\c3c(O)[nH]c4ccccc34)cc3c2=Nc2ccccc2-3)cc(OC)c1OC    37.7% (inactive)

What value of growth has been recorded for this entry: "CCOC(=O)C1=C(Nc2ccc(OC)cc2)C(N)=NC1=N"
66.8% (inactive)

Record: "Cc1ccc(S(=O)(=O)N2CCc3ccccc3CC2)cc1"
68% (inactive)

Record: "COc1cc(/C=C2\C(=O)Nc3cc(C)c(O)cc32)cc(OC)c1OC"
71.6% (inactive)

Record: "CCOC(=O)Nc1ccc2c(c1)C(=O)N(CCOC)c1ccccc1O2"
54.5% (inactive)

Record: "NC(N)=NS(=O)(=O)c1ccc(Nc2ccc3nnc(-c4ccncc4)n3n2)cc1"
94.3% (inactive)

Record: "COc1cccc(C(=O)NNc2nc(N3CCOCC3)nc(N3CCN(C(c4ccccc4)c4ccccc4)CC3)n2)c1"
86.3% (inactive)

Record: "N#CN1CC[C@H](C(=O)Nc2ncc(-c3ccncc3)s2)C1"
9.6% (active)

Reference source for all entries: PubChem BioAssay (NCI)
